All values here come from patent US20250313612A1.

Target: T1, RSV F ectodomain stabilized in the postfusion conformation (F ΔFP), subtype A (Respiratory syncytial virus subtype A, UniProt P03420 26-109; P03420 147-524)
T1 construct: extracellular domain; trimer; furin-cleaved; also called Postfusion subtype A
Assay: BLI, IgG on AHQ sensor, 100 nM antigen
Listing: pKd of selected binders
Remember the convention: pKd equals -log10 of concentration in molar.

// below: answered binders
{"binder": "ADI-14468 (antibody, V domains shown, full-length IgG (yeast-expressed); also called Antibody Number 31; Ab# 31) VH: QVQLVQSGPTLVRPTQTLTLTCTFSGFSLSTRGVGVGWVRQSPGKAPEFLVLAHWDDDKIYSPSLRRRLSVTKDVSKNQVVLALTNVDPVDTGTYFCVKSDLYDRGGYYLYYFDHWGQGTLVTVSS VL: DIRMTQSPSSLSASVGDRVTITCRASQTIASYVNWYLQRPGEAPKLLIYAASNLHSGAPPSLIGRGSGTDFTLTINTLQPEHFGTYFCQQTFSSPYTFGQGTKVEIK", "readoutName": "pKd", "number": 9.53}
{"binder": "ADI-14523 (antibody, V domains shown, full-length IgG (yeast-expressed); also called Antibody Number 83; Ab# 83) VH: EVQLVESGGGLVKPGGSLRLSCAASGFIFRNAWMSWVRQAPGKGLEWVGRIKRTSEGGSVDYATPVQGRFSISRDDSRNTLYLQMNSLETDDTAVYYCSTGPPYSYFDSSGYSVVDYWGQGTLVTVSS VL: QSVLTQPPSASGTPGQRVTISCSASSSNIGDNYFYWYQQLPGKAPTLLMYGSDQRSSGVPDRFSGSQSGTSASLAISGLRSEDEADYYCAAWDDSLSGPVFGGGTKLTVL", "readoutName": "pKd", "number": 9.72}
{"binder": "ADI-14486 (antibody, V domains shown, full-length IgG (yeast-expressed); also called Antibody Number 47; Ab# 47) VH: QVQLQESGPGLVKPSETLSLTCTVSGGSINNYFWSWIRQPPGKGLEWLGYIYNSGSTYYNPSLNSRVTISLQKSKNQFSLHLTSMTAADTAVYFCARHPSVIYGTFGANGGPNWFDPWGQGTLVTVSS VL: QSVLTQPASVSGSPGQSITISCTGTSSDVGGYNYVSWYQQHPGKAPKLMIFDVTYRPSGISNRFSGSKSGNTASLTISGLHSEDEADYYCSSYTGSNTVIFGGGTKLTVL", "readoutName": "pKd", "number": 9.28}
{"binder": "ADI-14499 (antibody, V domains shown, full-length IgG (yeast-expressed); also called Antibody Number 60; Ab# 60) VH: QVQLVQSGPALVKPTQTLTLTCTFSGFSLTTRGVGVGWIRQTPGKALECLGFIYWDDDMNYNPSLRGRVTITRDTSKNQVVLTMTNMAPVDTGTYYCVHSDLYDSSGYYLYYFDYWGQGTLVTVSS VL: DIRLTQSPSSLSASVGDRVTITCRASQPIASYLNWYQQKPGKAPKLLIYAASNLQSGVPSTFSGRGSGTDFSLTISTLQPEDIATYYCQQSYTSPYTFGQGTKVEIK", "readoutName": "pKd", "number": 9.38}

Next up:
Request: // query pKd value for entry ADI-14445 (antibody, V domains shown, full-length IgG (yeast-expressed); also called Antibody Number 8; Ab# 8) VH: EVQLLESGAVMKRPGSSVRVSCRASGVTLTTVSVNWVRQVPGQGPEWIGGILIGFGKVRQAQKFENRVTLTADASRNTAYMELSGLTSDDTAVYYCAIIDPQDCTRASCFWVNWLDPWGQGTLVTVSS VL: DIRMTQSPGTLTLSPGERATLSCRASQSILSGNLAWYQQKPGQAPRLLISAASTRATDIPDRFSGSGSGTDFTLTITRLEPQDFAVYYCQQYDSAPITFGQGTRLEIK
Response: 8.31
